Molecular target: T1, EsCas13d, nuclease-dead (Eubacterium siraeum, UniProt B0MS50, R295A;H300A;R849A;H854A)
T1 sequence: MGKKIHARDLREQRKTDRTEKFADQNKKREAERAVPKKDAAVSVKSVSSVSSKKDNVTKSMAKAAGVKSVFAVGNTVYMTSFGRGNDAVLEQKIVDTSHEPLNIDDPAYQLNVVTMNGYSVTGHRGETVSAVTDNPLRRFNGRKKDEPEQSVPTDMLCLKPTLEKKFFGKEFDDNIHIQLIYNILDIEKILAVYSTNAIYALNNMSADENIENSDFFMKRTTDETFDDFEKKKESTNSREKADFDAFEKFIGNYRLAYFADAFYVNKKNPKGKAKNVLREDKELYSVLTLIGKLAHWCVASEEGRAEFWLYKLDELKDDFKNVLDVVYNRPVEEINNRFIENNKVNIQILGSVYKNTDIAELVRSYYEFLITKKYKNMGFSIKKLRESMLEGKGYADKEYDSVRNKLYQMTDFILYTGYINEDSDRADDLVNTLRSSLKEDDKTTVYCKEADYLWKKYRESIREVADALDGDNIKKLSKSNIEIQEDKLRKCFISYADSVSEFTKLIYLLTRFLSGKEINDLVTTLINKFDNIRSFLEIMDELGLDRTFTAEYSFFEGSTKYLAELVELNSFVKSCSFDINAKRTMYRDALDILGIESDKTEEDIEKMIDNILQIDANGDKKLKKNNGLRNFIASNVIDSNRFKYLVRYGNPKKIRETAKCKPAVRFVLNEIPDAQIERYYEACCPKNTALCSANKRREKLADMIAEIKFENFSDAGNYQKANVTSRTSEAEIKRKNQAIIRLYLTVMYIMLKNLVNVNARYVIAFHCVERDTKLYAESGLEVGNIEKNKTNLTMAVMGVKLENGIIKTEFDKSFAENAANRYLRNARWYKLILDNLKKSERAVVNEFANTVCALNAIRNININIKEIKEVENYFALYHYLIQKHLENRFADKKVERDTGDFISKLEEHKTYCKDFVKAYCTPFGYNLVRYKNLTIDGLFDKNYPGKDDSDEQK
Experiment: crRNA (strand 1, pre-loaded); Mg2+; 40 mM Tris-HCl pH 7.5, 150 mM NaCl, 6 mM MgCl2, 1 mM DTT, 0.1% Tween-20, 0.2 mg/ml BSA; 25 C; 10 min per concentration, then washed
Settings: tags: His6-TwinStrep-SUMO cleaved; N-terminal SNAP kept (SNAP-Surface 488); label: 3' end held by stalled T7 RNA polymerase
readout name: pKd
Entry type: numeric. Quantity: pKd, the -log10 of concentration in molar units.

binder	pKd
target 3 insU 3' of 3,insU 3' of 3 (mixed) RNA 1: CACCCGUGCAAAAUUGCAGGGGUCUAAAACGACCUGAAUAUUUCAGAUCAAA RNA 2: GGGAAUGGAUCCACAUCUACGAAUUCGUUUUUGAUCUGAAAUAUUCAGGUUUCUGCAGAUCGGAAGAGCACACGU	7.09

We next turn to a different binder, shown below.
// query pKd value for entry target 2 MT 5'PFS AUA 3'PFS CUU (mixed) RNA 1: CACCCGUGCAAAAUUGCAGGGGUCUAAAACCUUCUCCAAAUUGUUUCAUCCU RNA 2: GGGAAUGGAUCCACAUCUACGAAUUCAUAAGGAUGAAACAAUUUGGAGAAGCUUAGAUCGGAAGAGCACACGU
7.70

Data provenance: paper PMC10786891
